Each recorded value in this set is attributed to patent EP4725969A1.

# Target: T1, recombinant human HER2 extracellular domain protein (human, UniProt P04626 23-652)
# T1 construct: range 23-652; Range is printed for the immunogen/panning protein; also called ErbB2; recombinant HER2 protein
# Assay Explanation: BLI, Protein A capture
I'd appreciate it if you could supply kon values for the items below.
Entry rule: numbers only, all in M⁻¹ s⁻¹.

Query: Requested read-out: kon. Entry: 2126-Hu-L03 (antibody, IgG1, V domains shown, IgG1/Cκ) VH: QVQLVQSGSELKKPGASVKVSCKASGYTFTDYSMHWVRQAPGQGLEWMGWINTETGEPTYADDFKGRFVFSLDTSVSTAYLQISSLKAEDTAVYFCVRVGRYDYAMDYWGQGTTVTVSS VL: DIQMTQSPSSLSASVGDRVTITCKASQDVSTAVAWYQQKPGKAPKLLINSASYRYTGVPSRFSGSGSGTDFTLTISSLQPEDFATYYCQQHYSTPPTFGGGTKVEIK
Reply: 47100

Query: Requested read-out: kon. Entry: 2126-Hu-H37 (antibody, IgG1, V domains shown, IgG1/Cκ) VH: QVQLVQSGSELKKPGASVKVSCKASGYTFTDYSMHWVRQAPGQGLEWMGWINTETGEPTYADDFKGRFSFSLDTSVSTAYLQISSLKAEDTAVYFCVRVGRYDYAMDYWGQGTTVTVSS VL: DIQMTQSPSSLSASVGDRVTITCKASQDVYTAVAWYQQKPGKAPKLLINSASYRYTGVPSRFSGSGSGTDFTLTISSLQPEDFATYYCQQHYSTPPTFGGGTKVEIK
Reply: 103000
